biological target: GRK6 (Homo sapiens, UniProt P43250, C561S/C562S/C565S/T10A); construct: His tag (inferred: purified by the GRK5 protocol, which starts with nickel-NTA); test: GRK6 kinase inhibition assay, phosphorylation of tubulin ([γ-32P]-ATP); details: phosphorylation of the soluble substrate tubulin; ± standard deviation from 3 to 4 independent experiments
Sequence (P43250 whole entry T10A/C561S/C562S/C565S): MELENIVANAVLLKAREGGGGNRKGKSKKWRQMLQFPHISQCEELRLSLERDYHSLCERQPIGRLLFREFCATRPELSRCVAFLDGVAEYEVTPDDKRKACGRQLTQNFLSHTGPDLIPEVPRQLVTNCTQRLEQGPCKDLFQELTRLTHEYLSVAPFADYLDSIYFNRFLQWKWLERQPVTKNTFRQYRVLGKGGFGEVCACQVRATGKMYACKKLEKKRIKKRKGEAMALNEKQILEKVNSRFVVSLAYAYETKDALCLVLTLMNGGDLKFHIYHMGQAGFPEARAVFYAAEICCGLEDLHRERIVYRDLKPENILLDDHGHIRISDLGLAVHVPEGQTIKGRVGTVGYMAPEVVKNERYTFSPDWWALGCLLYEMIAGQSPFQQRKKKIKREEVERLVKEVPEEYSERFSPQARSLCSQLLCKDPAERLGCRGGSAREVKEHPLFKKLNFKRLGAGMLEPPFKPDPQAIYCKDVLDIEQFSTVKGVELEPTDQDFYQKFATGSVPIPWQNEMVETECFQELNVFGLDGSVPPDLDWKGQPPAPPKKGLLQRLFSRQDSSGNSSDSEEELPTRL
PROPERTY: IC50 (nM)

Below, 2 compounds whose answers are already recorded.
[[record]]
compound = "Cc1[nH]c(/C=C2\\C(=O)Nc3ccc(C(=O)N[C@H](C)c4ccc(F)cc4)cc32)c(C)c1NC(=O)[C@@H]1CCC(=O)N1"
reported = 20

[[record]]
compound = "Cc1[nH]c(/C=C2\\C(=O)Nc3ccc(C(=O)N[C@H](C)c4ccc(F)cc4)cc32)c(C)c1NC(=O)[C@H]1CCC(=O)N1"
reported = 28


[I] CC(=O)N1CCCC1C(=O)Nc1c(C)[nH]c(C=C2C(=O)Nc3ccc(C(=O)NC(C)c4ccc(F)cc4)cc32)c1C (stereo not drawn)
[II] Cc1[nH]c(/C=C2\C(=O)Nc3ccc(C(=O)N[C@H](C)c4ccc(F)cc4)cc32)c(C)c1NC(=O)[C@@H]1CCCN1C(=O)OC(C)(C)C
Min IC50? I | II Field: selected label. Fill in the label of the entry you choose.
I

[1] Cc1[nH]c(/C=C2\C(=O)Nc3ccc(C(=O)N[C@H](C)c4ccc(F)cc4)cc32)c(C)c1NC(=O)[C@@H]1CNCCN1
[2] Cc1[nH]c(/C=C2\C(=O)Nc3ccc(C(=O)N[C@H](C)c4ccc(F)cc4)cc32)c(C)c1NC(=O)[C@@H]1CCN(C(=O)OC(C)(C)C)C1
Min IC50? 1 | 2 Field: selected label. Fill in the label of the entry you choose.
1
(1: 26 nM, 2: 1400 nM)

----------
molecular target: GRK6 (Homo sapiens, UniProt P43250, C561S/C562S/C565S/T10A); construct: His tag (inferred: purified by the GRK5 protocol, which starts with nickel-NTA); made in house; host or cells: Sf9 insect cells; assay: GRK6 kinase inhibition assay, phosphorylation of tubulin ([γ-32P]-ATP); assay type: biochemical; conditions: fold selectivity for GRK6 over GRK5
PROPERTY: Selectivity GRK5/GRK6 (fold)

Below, 3 compounds whose answers are already recorded.
[[record]]
compound = "Cc1[nH]c(/C=C2\\C(=O)Nc3ccc(C(=O)N[C@H](C)c4ccc(F)cc4)cc32)c(C)c1NC(=O)[C@H]1CCCNC1"
property = "Selectivity GRK5/GRK6"
unit_descriptor = "fold"
reported = 2

[[record]]
compound = "CC(=O)N1CCCC1C(=O)Nc1c(C)[nH]c(C=C2C(=O)Nc3ccc(C(=O)NC(C)c4ccc(F)cc4)cc32)c1C (stereo not shown)"
property = "Selectivity GRK5/GRK6"
unit_descriptor = "fold"
reported = 2

[[record]]
compound = "CC(=O)N1CCC[C@@H]1C(=O)Nc1c(C)[nH]c(/C=C2\\C(=O)Nc3ccc(C(=O)N[C@H](C)c4ccc(F)cc4)cc32)c1C"
property = "Selectivity GRK5/GRK6"
unit_descriptor = "fold"
reported = 1


[1] Cc1[nH]c(C=C2C(=O)Nc3ccc(C(=O)NC(C)c4ccc(F)cc4)cc32)c(C)c1NC(=O)C1C=CCN1C(=O)OC(C)(C)C (stereo not shown)
[2] Cc1[nH]c(/C=C2\C(=O)Nc3ccc(C(=O)N[C@H](C)c4ccc(F)cc4)cc32)c(C)c1NC(=O)[C@@H]1CCCNC1
[3] Cc1[nH]c(/C=C2\C(=O)Nc3ccc(C(=O)N[C@H](C)c4ccc(F)cc4)cc32)c(C)c1NC(=O)[C@@H]1CCCN1
Sort these compounds on Selectivity GRK5/GRK6 so the largest reading comes first. Quick reminder: the answer is the labels in the order asked.
3, 1, 2
(3: 3 fold, 1: 2 fold, 2: 1 fold)

----------
target: GRK2 (Homo sapiens); construct: made in house; assay: GRK2 kinase inhibition assay, phosphorylation of tubulin ([γ-32P]-ATP); assay type: biochemical; conditions: phosphorylation of the soluble substrate tubulin; ± standard deviation from 3 to 4 independent experiments
Sequence (P25098 whole entry): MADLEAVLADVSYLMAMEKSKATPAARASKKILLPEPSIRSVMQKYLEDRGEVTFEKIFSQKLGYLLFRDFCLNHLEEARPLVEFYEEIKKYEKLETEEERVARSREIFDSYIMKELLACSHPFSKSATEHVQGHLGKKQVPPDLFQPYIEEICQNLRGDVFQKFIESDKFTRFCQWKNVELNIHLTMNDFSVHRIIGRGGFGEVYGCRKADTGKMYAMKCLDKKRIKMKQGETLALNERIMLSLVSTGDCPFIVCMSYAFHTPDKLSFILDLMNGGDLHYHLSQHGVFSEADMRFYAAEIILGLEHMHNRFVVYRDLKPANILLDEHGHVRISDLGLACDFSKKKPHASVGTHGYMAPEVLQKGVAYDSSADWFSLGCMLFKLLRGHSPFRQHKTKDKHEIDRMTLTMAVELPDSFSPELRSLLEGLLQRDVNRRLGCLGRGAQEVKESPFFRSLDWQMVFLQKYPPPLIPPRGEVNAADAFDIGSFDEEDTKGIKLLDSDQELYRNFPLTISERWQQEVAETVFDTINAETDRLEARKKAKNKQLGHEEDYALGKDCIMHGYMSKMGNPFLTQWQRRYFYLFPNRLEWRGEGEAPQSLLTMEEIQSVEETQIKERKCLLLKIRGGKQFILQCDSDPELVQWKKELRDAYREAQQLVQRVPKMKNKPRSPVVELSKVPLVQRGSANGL
pIC50: −log10 of the molar value.
PROPERTY: pIC50

Below, 2 molecules whose answers are already recorded.
[[record]]
query_smiles = "Cc1[nH]c(/C=C2\\C(=O)Nc3ccc(C(=O)N[C@H](C)c4ccc(F)cc4)cc32)c(C)c1NC(=O)[C@@H]1CCCN1C(=O)OC(C)(C)C"
reported = "< 3.00"

[[record]]
query_smiles = "Cc1[nH]c(/C=C2\\C(=O)Nc3ccc(C(=O)N[C@H](C)c4ccc(F)cc4)cc32)c(C)c1NC(=O)[C@H]1CCN(C(=O)OC(C)(C)C)C1"
reported = "< 3.00"


The molecule Cc1[nH]c(/C=C2\C(=O)Nc3ccc(C(=O)N[C@H](C)c4ccc(F)cc4)cc32)c(C)c1NC(=O)[C@@H]1CN(C(=O)OC(C)(C)C)CCN1 showed pIC50 equal to < 3.00

----------
Biological target: GRK6 (Homo sapiens, UniProt P43250, C561S/C562S/C565S/T10A)
Construct: His tag (inferred: purified by the GRK5 protocol, which starts with nickel-NTA)
Experiment: GRK6 kinase inhibition assay, phosphorylation of tubulin ([γ-32P]-ATP)
Settings: phosphorylation of the soluble substrate tubulin; ± standard deviation from 3 to 4 independent experiments
Experimental: The inhibitory potency of synthetic compounds containing the N‐heterocyclic amide functionalities was evaluated against human GRK2, GRK5 and GRK6 using our in vitro assays‐, as reported previously.^[ [35], [37] ^] […] We then investigated the effect of (R)‐ and (S)‐Boc pyrrolidine carboxamide derivatives. […] Inhibit ion assays were conducted in a reaction mixture containing 20 mM H EPES pH 7. […] Quantification was performed using a Personal Molecular Imager and Quantity One 1- D Analysis Software. […]
PROPERTY: IC50 (nM)

Below, 2 compounds whose answers are already recorded.
[[record]]
query_smiles = "CC(=O)N1CCC[C@@H]1C(=O)Nc1c(C)[nH]c(/C=C2\\C(=O)Nc3ccc(C(=O)N[C@H](C)c4ccc(F)cc4)cc32)c1C"
reported = 60

[[record]]
query_smiles = "Cc1[nH]c(/C=C2\\C(=O)Nc3ccc(C(=O)N[C@H](C)c4ccc(F)cc4)cc32)c(C)c1NC(=O)[C@@H]1CCCNC1"
reported = 60


[P] Cc1[nH]c(/C=C2\C(=O)Nc3ccc(C(=O)N[C@H](C)c4ccc(F)cc4)cc32)c(C)c1NC(=O)[C@H]1CCCN1C(=O)OC(C)(C)C
[Q] Cc1[nH]c(/C=C2\C(=O)Nc3ccc(C(=O)N[C@H](C)c4ccc(F)cc4)cc32)c(C)c1NC(=O)[C@@H]1CCCN1
[R] Cc1[nH]c(/C=C2\C(=O)Nc3ccc(C(=O)N[C@H](C)c4ccc(F)cc4)cc32)c(C)c1NC(=O)[C@H]1CN(C(=O)OC(C)(C)C)CCN1
Sort these compounds on IC50 so the largest reading comes first. Quick reminder: the answer is the labels in the order asked.
P, R, Q
(P: 1400 nM, R: 60 nM, Q: 34 nM)

----------
target: GRK5 (Homo sapiens, UniProt P34947); construct: Human GR K5 (residues 1- 590) w ild- type and D 311N mutant w ere expressed in E. co li Rosetta; His tag (inferred from nickel-NTA purification); made in house; host or cells: E. coli Rosetta (DE3); experiment: GRK5 kinase inhibition assay, phosphorylation of tubulin ([γ-32P]-ATP); format: biochemical; conditions: fold selectivity for GRK5 over GRK2
Sequence (P34947 whole entry, the tested form may be a part): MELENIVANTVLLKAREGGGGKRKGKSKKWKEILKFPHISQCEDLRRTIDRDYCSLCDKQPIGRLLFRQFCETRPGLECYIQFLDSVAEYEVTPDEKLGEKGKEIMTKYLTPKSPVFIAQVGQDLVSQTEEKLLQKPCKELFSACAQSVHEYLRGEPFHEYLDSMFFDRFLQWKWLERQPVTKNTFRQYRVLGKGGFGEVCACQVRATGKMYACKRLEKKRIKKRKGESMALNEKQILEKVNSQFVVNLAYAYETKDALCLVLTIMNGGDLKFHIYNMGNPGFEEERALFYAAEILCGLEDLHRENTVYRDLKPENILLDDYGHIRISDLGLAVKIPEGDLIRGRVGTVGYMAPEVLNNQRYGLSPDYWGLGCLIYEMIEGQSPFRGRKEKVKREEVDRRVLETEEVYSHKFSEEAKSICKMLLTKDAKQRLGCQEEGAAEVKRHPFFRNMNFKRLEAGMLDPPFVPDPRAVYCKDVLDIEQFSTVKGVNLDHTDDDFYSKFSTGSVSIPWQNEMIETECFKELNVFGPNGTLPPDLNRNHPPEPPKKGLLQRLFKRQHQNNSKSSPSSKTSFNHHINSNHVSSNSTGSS
PROPERTY: Selectivity GRK2/GRK5

[[record]]
molecule = "Cc1[nH]c(/C=C2\\C(=O)Nc3ccc(C(=O)N[C@H](C)c4ccc(F)cc4)cc32)c(C)c1NC(=O)[C@H]1CCN(C(=O)OC(C)(C)C)C1 [6l]"
assay_target = "GRK5 (Homo sapiens, UniProt P34947)"
property = "Selectivity GRK2/GRK5"
reported = ">1000 fold"

[[record]]
molecule = "Cc1[nH]c(/C=C2\\C(=O)Nc3ccc(C(=O)N[C@H](C)c4ccc(F)cc4)cc32)c(C)c1NC(=O)[C@@H]1CN(C(=O)OC(C)(C)C)CCN1 [6t]"
assay_target = "GRK5 (Homo sapiens, UniProt P34947)"
property = "Selectivity GRK2/GRK5"
reported = ">1600 fold"


The molecule CC(=O)N1CCCC1C(=O)Nc1c(C)[nH]c(C=C2C(=O)Nc3ccc(C(=O)NC(C)c4ccc(F)cc4)cc32)c1C (stereo not shown) [6f] showed Selectivity GRK2/GRK5 equal to 15 fold

The molecule Cc1[nH]c(/C=C2\C(=O)Nc3ccc(C(=O)N[C@H](C)c4ccc(F)cc4)cc32)c(C)c1NC(=O)[C@@H]1CCCN1C(=O)OC(C)(C)C [6d] showed Selectivity GRK2/GRK5 equal to >2000 fold

----------
biological target: GRK6 (Homo sapiens, UniProt P43250, C561S/C562S/C565S/T10A); construct: His tag (inferred: purified by the GRK5 protocol, which starts with nickel-NTA); made in house; host or cells: Sf9 insect cells; assay: GRK6 kinase inhibition assay, phosphorylation of tubulin ([γ-32P]-ATP); type: biochemical; details: fold selectivity for GRK6 over GRK5
PROPERTY: Selectivity GRK5/GRK6 (fold)

[[record]]
query_smiles = "Cc1[nH]c(/C=C2\\C(=O)Nc3ccc(C(=O)N[C@H](C)c4ccc(F)cc4)cc32)c(C)c1NC(=O)[C@H]1CCCN(C(=O)OC(C)(C)C)C1"
reported = 1

[[record]]
query_smiles = "Cc1[nH]c(/C=C2\\C(=O)Nc3ccc(C(=O)N[C@H](C)c4ccc(F)cc4)cc32)c(C)c1NC(=O)[C@@H]1CCCCN1C(=O)OC(C)(C)C"
reported = 37

[[record]]
query_smiles = "Cc1[nH]c(/C=C2\\C(=O)Nc3ccc(C(=O)N[C@H](C)c4ccc(F)cc4)cc32)c(C)c1NC(=O)[C@H]1CCC(=O)N1"
reported = 30

[[record]]
query_smiles = "Cc1[nH]c(/C=C2\\C(=O)Nc3ccc(C(=O)N[C@H](C)c4ccc(F)cc4)cc32)c(C)c1NC(=O)[C@@H]1CCN(C(=O)OC(C)(C)C)C1"
reported = 1


[a] Cc1[nH]c(/C=C2\C(=O)Nc3ccc(C(=O)N[C@H](C)c4ccc(F)cc4)cc32)c(C)c1NC(=O)[C@@H]1C=CCN1
[b] Cc1[nH]c(/C=C2\C(=O)Nc3ccc(C(=O)N[C@H](C)c4ccc(F)cc4)cc32)c(C)c1NC(=O)[C@H]1CCCN1C(=O)OC(C)(C)C
Min Selectivity GRK5/GRK6? a | b Field: selected label. Fill in the label of the entry you choose.
a

[a] Cc1[nH]c(/C=C2\C(=O)Nc3ccc(C(=O)N[C@H](C)c4ccc(F)cc4)cc32)c(C)c1NC(=O)[C@@H]1CCCN(C(=O)OC(C)(C)C)C1
[b] Cc1[nH]c(/C=C2\C(=O)Nc3ccc(C(=O)N[C@H](C)c4ccc(F)cc4)cc32)c(C)c1NC(=O)[C@@H]1CN(C(=O)OC(C)(C)C)CCN1
Hi team, can someone confirm which has the larger Selectivity GRK5/GRK6: a or b ? Thanks. Field: selected label. Fill in the label of the entry you choose.
b
(b: 7 fold, a: 1 fold)
